assay: in vitro; details: African green monkey
endpoint-name: CC50

Query string: Request the reported CC50 associated with COc1cccc(NC(C(=O)c2csc3ccccc23)c2ccccc2)c1 (stereo not drawn)
Result string: > 133 µM

Query string: Request the reported CC50 associated with CCOC(=O)Cn1cc(C(=O)C(Nc2cccc(OC)c2)c2ccccc2)c2ccccc21 (stereo not drawn)
Result string: > 112 µM

More entries:
Query string: Request the reported CC50 associated with COc1cccc(NC(C(=O)c2nn(CCO)c3ccccc23)c2ccccc2)c1 (stereo not drawn)
Result string: 71 µM

----------
assay: in vitro; settings: African green monkey, uninfected quiescent Vero-B cells
Below, each entry is listed with its recorded CC50 at 4 days.

Query string: Request the reported CC50 at 4 days associated with COc1cccc(NC(C(=O)c2c[nH]c3ccccc23)c2cnc(OC)cn2)c1 (stereo not drawn)
Result string: 53 µM

Query string: Request the reported CC50 at 4 days associated with COc1cccc(NC(C(=O)c2nn(C)c3c2CNCC3)c2ccccc2)c1 (stereo not drawn)
Result string: 80 µM

Query string: Request the reported CC50 at 4 days associated with COc1cccc(NC(C(=O)c2noc3ccccc23)c2ccccc2)c1 (stereo not drawn)
Result string: > 139 µM

Query string: Request the reported CC50 at 4 days associated with COc1cc(NC(C(=O)c2c[nH]c3cc(F)ccc23)c2ccccc2)ccn1 (stereo not drawn)
Result string: 102 µM

Query string: Request the reported CC50 at 4 days associated with COc1cccc(NC(C(=O)c2nn(C)c3cc(C#N)ccc23)c2ccccc2)c1 (stereo not drawn)
Result string: > 126 µM

More entries:
Query string: Request the reported CC50 at 4 days associated with COc1cccc(NC(C(=O)c2c[nH]c3ccccc23)c2cnn(C)c2)c1 (stereo not drawn)
Result string: > 138 µM

Query string: Request the reported CC50 at 4 days associated with CN(C)C(=O)c1cccc(NC(C(=O)c2c[nH]c3ccccc23)c2ccccc2)c1 (stereo not drawn)
Result string: > 125 µM

Query string: Request the reported CC50 at 4 days associated with COc1cc(NC(C(=O)c2c[nH]c3ccccc23)c2cc3ccccn3n2)cc(OC)c1 (stereo not drawn)
Result string: 65 µM

Query string: Request the reported CC50 at 4 days associated with COc1cccc(NC(C(=O)c2c[nH]c3cc(CO)ccc23)c2ccccc2)c1 (stereo not drawn)
Result string: 53 µM

----------
system: DENV-3 strain H87 prototype; assay: Antiviral activity against DENV-3 in Vero-B cells (viral RNA load by RT-qPCR); assay type: cell-based, Dengue virus
Below, each entry is listed with its recorded pEC50.
// pEC50 is dimensionless: -log10 of concentration (M)

Examples with answers:
Query string: Request the reported pEC50 associated with COc1cncc(NC(C(=O)c2c[nH]c3ccccc23)c2ccccc2)c1 (single isomer, unassigned) [CPD-299]
Result string: 6.11

Query string: Request the reported pEC50 associated with COc1cccc(NC(C(=O)c2c[nH]c3ccccc23)c2cc3ccccn3n2)c1 (single isomer, unassigned) [CPD-324]
Result string: 6.72

Query string: Request the reported pEC50 associated with COc1cc(NC(C(=O)c2c[nH]c3ccccc23)c2ccccc2)cc(OC)c1 (single isomer, unassigned) [CPD-327]
Result string: 5.34

Query string: Request the reported pEC50 associated with COc1cc(NC(C(=O)c2c[nH]c3ccccc23)c2ccccc2)cc(OC)c1 (single isomer, unassigned) [CPD-326]
Result string: 7.05

Query string: Request the reported pEC50 associated with COc1cncc(NC(C(=O)c2c[nH]c3ccccc23)c2ccccc2)c1 (single isomer, unassigned) [CPD-300]
Result string: 4.68

Query string: Request the reported pEC50 associated with COc1cncc(NC(C(=O)c2c[nH]c3ccc(F)cc23)c2ccc(OC)nc2)c1 (single isomer, unassigned) [CPD-323]
Result string: 5.30

Query string: Request the reported pEC50 associated with COc1cncc(NC(C(=O)c2c[nH]c3ccc(F)cc23)c2ccc(OC)nc2)c1 (single isomer, unassigned) [CPD-322]
Result string: 6.49

For the next question, use this compound.
Query string: Request the reported pEC50 associated with COc1cccc(NC(C(=O)c2c[nH]c3ccccc23)c2cc3ccccn3n2)c1 (single isomer, unassigned) [CPD-325]
Result string: 5.74
